Where these numbers come from: patent US20240287172A1

System name: T1, hiR2-FL-G546A-T7 (human, UniProt Q6PJF5 1-856)
T1 sequence: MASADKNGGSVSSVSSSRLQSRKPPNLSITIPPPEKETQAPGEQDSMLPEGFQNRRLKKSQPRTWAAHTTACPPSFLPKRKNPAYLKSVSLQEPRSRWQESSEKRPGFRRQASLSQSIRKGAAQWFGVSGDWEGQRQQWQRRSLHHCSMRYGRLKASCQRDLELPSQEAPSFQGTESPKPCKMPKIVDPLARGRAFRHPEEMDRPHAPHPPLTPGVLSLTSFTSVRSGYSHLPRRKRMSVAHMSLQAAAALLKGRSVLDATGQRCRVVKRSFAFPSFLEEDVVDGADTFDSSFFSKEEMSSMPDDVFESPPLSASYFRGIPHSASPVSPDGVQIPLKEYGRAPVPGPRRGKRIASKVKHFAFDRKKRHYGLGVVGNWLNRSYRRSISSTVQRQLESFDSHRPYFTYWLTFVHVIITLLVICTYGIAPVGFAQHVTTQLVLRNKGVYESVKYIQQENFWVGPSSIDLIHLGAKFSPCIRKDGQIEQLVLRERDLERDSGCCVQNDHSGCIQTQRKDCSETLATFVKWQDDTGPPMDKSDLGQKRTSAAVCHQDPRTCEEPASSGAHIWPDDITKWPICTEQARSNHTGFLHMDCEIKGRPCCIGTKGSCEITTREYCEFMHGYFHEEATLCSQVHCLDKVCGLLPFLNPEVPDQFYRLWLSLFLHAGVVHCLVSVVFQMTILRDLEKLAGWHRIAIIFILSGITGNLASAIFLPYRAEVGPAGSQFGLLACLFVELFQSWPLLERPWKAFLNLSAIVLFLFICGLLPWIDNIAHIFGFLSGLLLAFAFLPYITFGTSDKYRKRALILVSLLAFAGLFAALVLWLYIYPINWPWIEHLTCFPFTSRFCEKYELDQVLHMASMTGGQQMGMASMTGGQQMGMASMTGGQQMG
Assay info: FACS, MEF-DKO cells, 3 µg/ml
Value type: loss of binding vs wild type

In the examples that follow, each entry is paired with its recorded loss of binding vs wild type.
Binder	loss of binding vs wild type
antibody 34 (antibody, V domains shown, mouse IgG, kappa light chain; also called clone #34; purified antibody 34) VH: QVTLKESGPGILQPSQTLSLTCSFSGFSLSTFSLGVGWIRQSSGKGLEWLAHIWWDDEKYYNPALKSRLTISKDTSKNQVFLKIANVDAADTATYYCARAYYSKSYYALDYWGQGTSVTVSS VL: DIQMTQSPSSLSASLGERVSLTCRASQEISGYLSWLQQKPDGTIKRLIYAASTLDSGVPKRFSGSRSGSDYSLAISSLESEDFADYYCLQYANFPFTFGSGTKLEIK	≥ 60%
antibody 3 (antibody, V domains shown, mouse IgG, kappa light chain; also called clone #3; purified antibody 3) VH: QVTLKESGPGILQPSQTLSLTCSFSGFSLTTFAMGIGWVRQPSGKGLEWLAHIWWDGEKYNNPVLKSRLTISKDTSKNQVFLRIANVDTPDTATYYCARISSIYYIIDNWGQGTSVTVSS VL: DIVLTQSPATLSVTPGHSVSLSCRASQSISNNLHWYQKKSHESPRLLIKYVSQSISGIPSRFSGSGSGTDFTLSINSVETEDFGMYFCQQSYNWPLTFGAGTKLELK	≥ 30%
antibody 42 (antibody, V domains shown, mouse IgG, kappa light chain; also called clone #42; purified antibody 42) VH: QVTLKESGPGILQPSQTLSLTCSLSGFSLSTFGRGVGWIRQPSGKGLEWLAHIWWDDEKYYNPALKSRLTISKDTSKNQVFLRIANVDTADTATYYCARIQNYGSNYWYFDVWGTGTTVTVSS VL: LIVLTQSPAIMSASPGEKVTMTCGATSRISYMFWYQQKPGSSPRVLIYDTSNLASGVPVRFSGSGSGTSYSLTISRVEAEDVATYYCQQWNSYPLTFGAGTKLELK	≥ 60%

// switching to the query binder
// query Record request: loss of binding vs wild type value, item antibody 22 (antibody, V domains shown, mouse IgG, kappa light chain; also called clone #22; purified antibody 22) VH: QVTLKESGPGILQPSQTLSLTCSFSGFSLSTFGMGVGWIRQPSGKGLEWLAHIWWDDEKYYNSALKSRLTISKATSKNQVFLKIANVDTADTATYYCARISNYGSNYWYFNVWGTGTTVTVSS VL: QVVLTQSPALMSASPGEKVTMTCSAGSSVSYMYWYQQKPGSSPRVLIYDTSNLASGVPARFTGSGSGTSYSLTISRMEAEDAATYYCQQWNSYPLTFGAGTKLELK
// result ≥ 30%
